Item-by-item account of EC50
- Target or system: T1, human Claudin 18.2 (human)
- T1 construct: Overexpressed on HEK293A or MC38 cells by lentivirus; endogenous on KATO-III and NUGC-4 cells
- Method description: FACS on HEK-293A cells expressing human Claudin 18.2
In your response, the unit should come after the numeric value.

{"columns": ["Binder", "EC50"],
 "data": [
  ["18F2 (antibody, human IgG1, kappa, V domains shown, Chimeric full length antibody, mouse variable regions with human IgG1/kappa constant regions; also called clone 18F2; parent clone 18F2) VH: QVQLQQPGAELVRPGASVKLSCKASGYTFTSFWVNWVKQRPGQGLEWIGNIYPSTSYTVYNQKFKDKATLTVDKSSSTAYMQLSSPTSEDSAVYYCTRSWRGNSFDHWGQGTTLTVSS VL: DIVMTQSPSSLTVTAGEKVTMSCKSSQSLLNSGNQKNYVTWYQQKPGQPPKLLIYWGSTRVRGVPDRFTGSGSGTDFTLTISSVQAEDLAVYYCQNDYTYPFTFGSGTKLEIKR", "1.26 nM"]
]}

Read the next record carefully.
Lookup: Look up and report measured EC50 for this entry: 18F2-66 (antibody, human IgG1, kappa, V domains shown) VH: QVQLQQPGAELVRPGASVKLSCKASGYTFTSFWINWVKQRPGQGLEWIGNIYPSASYTVYNQKFKDKATLTVDKSSSTAYMQLSSPTSEDSAVYYCTRTWRGNSFDLWGQGTTLTVSS VL: DIVMTQSPSSLTVTAGEKVTMSCKSSQSLLNSGNQKNYVTWYQQKPGQPPKLLIYWSSTRSFGVPDRFTGSGSGTDFTLTISSVQAEDLAVYYCQNDYTYPFTFGSGTKLEIKR
Found: 0.524 nM
